Taken from PubChem BioAssay.

test system: Wnt5a (protein binding on small-molecule microarray); assay: Wnt5a binders on small-molecule microarray, primary screen, biophysical, 635/667 nm fluorescence (AID 1142); settings: 635 nm fluorescence, higher = more signal;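 further: fluorescence read at 667 nm with signal to noise per printed feature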
Where composite z-score equals or exceeds 0.07, the correct label is yes (1); where it does not, the label is no (0).

A selection of reference data follows.
# Molecule, Experimental Target, Label Value
rows = [
    ("Cc1ccc(S(=O)(=O)c2cc3oc2CC[C@@H](CO)NC(=O)N(C)Cc2cn(nn2)C[C@H](Cc2ccccc2)NC3=O)cc1", "Wnt5a (protein binding on small-molecule microarray)", "no (0)"),
    ("CCCCCCc1nc(C2CC2)c(C)c2c1[Si](C(C)C)(C(C)C)OC2", "Wnt5a (protein binding on small-molecule microarray)", "no (0)"),
    ("C[C@@H]1CC[C@H]2C(=O)N3[C@@H](CC[C@@H](C)[C@@H]3c3cccc(N4CCOCC4)c3)C(=O)N2[C@H]1c1cccc(Br)c1", "Wnt5a (protein binding on small-molecule microarray)", "yes (1)"),
    ("CCCC=C(CCC)[C@@H](NS(=O)(=O)c1cccc(C(F)(F)F)c1)c1ccc(C(=O)OC)cc1", "Wnt5a (protein binding on small-molecule microarray)", "yes (1)"),
    ("CO[C@@H]1COC(=O)[C@@H]2CCCN2C(=O)CC=C[C@@H](C)[C@H](OC)COC(=O)[C@@H]2CCCN2C(=O)CC=C[C@H]1C", "Wnt5a (protein binding on small-molecule microarray)", "no (0)"),
    ("C=CCc1cccc([C@@H]2[C@@H](C)CC[C@H]3C(=O)N4[C@H](c5cccc(CC=C)c5)[C@@H](C)CC[C@H]4C(=O)N23)c1", "Wnt5a (protein binding on small-molecule microarray)", "yes (1)"),
]

Check this molecule for composite z-score at or above 0.07: C=C(CCCC)/C(=C/C[C@H](OC(=O)c1ccncc1)c1cccc(OCCO)c1)c1cc(C(=O)OC)ccc1OC
yes (1)

Check this molecule for composite z-score at or above 0.07: CN1CCC(CCCO)=CC1C1CC1 (stereo not drawn)
no (0)

###

tested on: XIP peptide (Xip251-270); assay: small-molecule binders of XIP peptide, primary screen, biochemical, small-molecule microarray, fluorescence 635/667 nm, 0.5 µg/mL protein (AID 1183); conditions: small-molecule microarray binding, fluorescence 635 nm; higher = more signal
Assay Metric: composite z-score
Just the number.

Solved entries (count: 5):
# Query Smiles, Assay Metric, Reported Result
rows = [
    ("CCOC(=O)C[C@H]1[C@H](OC(=O)c2cc3ccccc3oc2=O)[C@@H](NC(=O)C2CCCCC2)c2cc(OCCCO)ccc2N1C(=O)c1ccc2ccccc2n1", "composite z-score", 0.522),
    ("O=C/C=C/c1ccccc1Cl", "composite z-score", -0.264),
    ("O=C1C[C@@](C(=O)NC2CC2)(c2ccc([N+](=O)[O-])cc2)[C@@H](c2ccc(CO)cc2I)N1CC12CC3CC(CC(C3)C1)C2", "composite z-score", 0.687),
    ("CCOC(=O)C1=C[C@@H](c2ccccc2)N(S(=O)(=O)c2ccc(C)cc2)[C@H]1c1ccc(F)cc1", "composite z-score", 0.382),
    ("CCOC(=O)C[C@H]1[C@H](OC(=O)c2cc3ccccc3oc2=O)[C@@H](NC(=O)c2ccc3ccccc3c2)c2cc(OCCCO)ccc2N1C(=O)c1ccc2ccccc2n1", "composite z-score", -0.333),
]

Now take the following compound into account.
Need composite z-score, item CCCC=C(CCC)[C@@H](NS(=O)(=O)c1ccc(C(F)(F)F)cc1)c1ccc(-c2ccccc2)cc1
0.0936
